test system: HOP-62; test: relative viability (nuclei count vs DMSO), 5 days (fraction); higher = more cells survive; conditions: first compound 8 µM
Classify: yes when relative viability is strictly less than 0.4; no when relative viability is not.

Take a look at these entries with their results.
CCCCCCCCCCCC1=C(O)C(=O)C=C(O)C1=O [Embelin] + COc1cccc2cc(-c3nc([C@H]4CC[C@H](C(=O)O)CC4)n4ncnc(N)c34)[nH]c12 [OSI-027] (partner 0.5 µM) ... no
CCCCCCCCCCCC1=C(O)C(=O)C=C(O)C1=O [Embelin] + Cc1nc(NC(=O)N2CCC[C@H]2C(N)=O)sc1-c1ccnc(C(C)(C)C(F)(F)F)c1 [Alpelisib] (partner 2 µM) ... no
CCCCCCCCCCCC1=C(O)C(=O)C=C(O)C1=O [Embelin] + NC(=O)Nc1cc(-c2cccc(F)c2)sc1C(=O)N[C@H]1CCCNC1 [AZD7762] (partner 0.2 µM) ... yes

Note: attention shifts to another entry.
Prompt line: API: query returns whether the compound falls strictly under 0.4 in relative viability. Query: CCCCCCCCCCCC1=C(O)C(=O)C=C(O)C1=O [Embelin] + N=C(N)NC(=N)NCCc1ccccc1 [Phenformin] (partner 250 µM)
Response line: no

---

system: NCI-H3122; test: relative viability (nuclei count vs DMSO), 5 days (fraction); higher = more cells survive; details: first compound 0.3162 µM
Assay Readout: relative viability
Give the value as a plain number.

CC(C)Oc1cc(Nc2nc(N[C@@H](C)c3ccc(F)cn3)ncc2Cl)n[nH]1 [AZ23] + NC(=O)Nc1cc(-c2cccc(F)c2)sc1C(=O)N[C@H]1CCCNC1 [AZD7762] (partner 0.2 µM) ... 1.02
CC(C)Oc1cc(Nc2nc(N[C@@H](C)c3ccc(F)cn3)ncc2Cl)n[nH]1 [AZ23] + COc1cccc2cc(-c3nc([C@H]4CC[C@H](C(=O)O)CC4)n4ncnc(N)c34)[nH]c12 [OSI-027] (partner 0.5 µM) ... 1.12
CC(C)Oc1cc(Nc2nc(N[C@@H](C)c3ccc(F)cn3)ncc2Cl)n[nH]1 [AZ23] + CS(=O)(=O)N1CCN(Cc2cc3nc(-c4cccc5[nH]ncc45)nc(N4CCOCC4)c3s2)CC1 [Pictilisib] (partner 1 µM) ... 0.579
CC(C)Oc1cc(Nc2nc(N[C@@H](C)c3ccc(F)cn3)ncc2Cl)n[nH]1 [AZ23] + Cc1nc(Nc2ncc(C(=O)Nc3c(C)cccc3Cl)s2)cc(N2CCN(CCO)CC2)n1 [Dasatinib] (partner 0.075 µM) ... 0.856
CC(C)Oc1cc(Nc2nc(N[C@@H](C)c3ccc(F)cn3)ncc2Cl)n[nH]1 [AZ23] + O=C(c1cc(Cc2n[nH]c(=O)c3ccccc23)ccc1F)N1CCN(C(=O)C2CC2)CC1 [Olaparib] (partner 8 µM) ... 0.684

For reference, reported relative viability for CC(C)Oc1cc(Nc2nc(N[C@@H](C)c3ccc(F)cn3)ncc2Cl)n[nH]1 [AZ23] + Nc1nc2[nH]cc(CCc3ccc(C(=O)N[C@@H](CCC(=O)O)C(=O)O)cc3)c2c(=O)[nH]1 [Pemetrexed] (partner 0.2 µM) stands at 0.195

For reference, reported relative viability for CC(C)Oc1cc(Nc2nc(N[C@@H](C)c3ccc(F)cn3)ncc2Cl)n[nH]1 [AZ23] + C[C@]1(O)C[C@@H](c2nc(-c3ccc4ccc(-c5ccccc5)nc4c3)c3c(N)nccn32)C1 [Linsitinib] (partner 1 µM) stands at 1.06
